Biological target: human PSMA on tumor cells (LNCaP, MDA-PCA-2B, VCAP, 22Rv1) (human, UniProt Q04609 1-750)
Sequence (Q04609 whole entry): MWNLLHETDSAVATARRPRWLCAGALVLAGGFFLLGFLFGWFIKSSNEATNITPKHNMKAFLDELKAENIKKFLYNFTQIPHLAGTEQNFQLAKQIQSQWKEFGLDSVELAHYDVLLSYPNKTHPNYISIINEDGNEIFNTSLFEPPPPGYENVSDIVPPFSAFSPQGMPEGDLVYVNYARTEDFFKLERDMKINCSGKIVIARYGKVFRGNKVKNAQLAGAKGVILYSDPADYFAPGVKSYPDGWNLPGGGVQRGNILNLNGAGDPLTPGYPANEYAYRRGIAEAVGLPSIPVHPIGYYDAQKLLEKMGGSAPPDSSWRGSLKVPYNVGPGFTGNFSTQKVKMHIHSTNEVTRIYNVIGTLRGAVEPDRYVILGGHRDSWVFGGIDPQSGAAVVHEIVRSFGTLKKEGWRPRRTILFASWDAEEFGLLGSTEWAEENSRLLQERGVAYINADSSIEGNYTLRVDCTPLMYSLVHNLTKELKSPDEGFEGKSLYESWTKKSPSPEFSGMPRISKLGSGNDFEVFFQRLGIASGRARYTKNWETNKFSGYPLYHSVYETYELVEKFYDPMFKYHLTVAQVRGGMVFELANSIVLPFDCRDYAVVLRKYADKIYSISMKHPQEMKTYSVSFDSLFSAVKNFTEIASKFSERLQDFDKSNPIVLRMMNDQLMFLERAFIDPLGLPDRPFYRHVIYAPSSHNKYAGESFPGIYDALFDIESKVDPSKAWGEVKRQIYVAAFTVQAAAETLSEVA
Assay: cell-based or functional assay
Quantity Measured: LNCaP IC50 (nM), cytotoxicity of the FN3 domain-vcMMAF conjugate (CellTiter-Glo)
Form entry: enter the amount, then its unit.

{"columns": ["Binder", "Experimental Value"],
 "data": [
  ["P233FR9P1001_B5-5 (designed binder, not shown: C-terminal poly-histidine tag) LPAPKNLVVSRVTEDSARLSWTAPDAAFDSFTIGYWEWDDDGEAIVLTVPGSERSYDLTGLKPGTEYPVYIAGVKGGQWSFPLSAIFTT", "0.5 nM"],
  ["P258AR6P1071_F04 (designed binder, not shown: C-terminal poly-histidine tag) LPAPKNLVVSRVTEDSARLSWVIDEQRDWFDSFLIQYQESEKVGEAIVLTVPGSERSYDLTGLKPGTEYTVSIYGVYHVYRSNPLSAIFTT", "5.4 nM"],
  ["P233FR9_H10 (designed binder, also called H10 FN3 domain; P233FR9_10; not shown: C-terminal poly-histidine tag) LPAPKNLVVSRVTEDSARLSWTAPDAAFDSFAIGYWEWDDDGEAIVLTVPGSERSYDLTGLKPGTEYPVYIAGVKGGQWSFPLSAIFTT", "0.4 nM"]
]}

Data request: Returns the measured LNCaP IC50 (nM), cytotoxicity of the FN3 domain-vcMMAF conjugate (CellTiter-Glo) for the input binder. Input: P258AR6P1070_F09 (designed binder, not shown: C-terminal poly-histidine tag) LPAPKNLVVSRVTEDSARLSWTIDEQRDWFESFLIQYQESEKVGEAIVLTVPGSERSYDLTGLKPGTEYTVSIYGVYHVYRSNPLSAIFTT
Data returned: 0.9 nM

Data request: Which LNCaP IC50 (nM), cytotoxicity of the FN3 domain-vcMMAF conjugate (CellTiter-Glo) value is on record for P229CR5P819_H11 (designed binder, In the cytotoxicity assays it was conjugated to vc-MMAF (cysteine-maleimide chemistry or sortase reaction); also called P229CR9P819-H11; not shown: C-terminal poly-histidine tag) LPAPKNLVVSRVTEDSARLSWDIDEQRDWFDSFLIQYQESEKVGEAIVLTVPGSERSYDLTGLKPGTEYTVSIYGVYHVYRSSNPLSAIFTT ?
Data returned: 20.7 nM

Data request: Can you share its LNCaP IC50 (nM), cytotoxicity of the FN3 domain-vcMMAF conjugate (CellTiter-Glo)? I mean this binder: P234CR9_A7 (designed binder, also called P234CR9_A07; not shown: C-terminal poly-histidine tag) LPAPKNLVVSRVTEDSARLSWGEQFTIFDSFLIQYQESEKVGEAIVLTVPGSERSYDLTGLKPGTEYTVSIYGASGYEWFHAFGSSNPLSAIFTT
Data returned: 8.8 nM

Data request: Value lookup for LNCaP IC50 (nM), cytotoxicity of the FN3 domain-vcMMAF conjugate (CellTiter-Glo); key = P234CR9_H01 (designed binder, not shown: C-terminal poly-histidine tag) LPAPKNLVVSRVTEDSARLSWEWWVIPGDFDSFLIQYQESEKVGEAIVLTVPGSERSYDLTGLKPGTEYTVSIYGVVNSGQWNDTSNPLSAIFTT
Data returned: 22.6 nM

Data request: Look at this binder and give its reported LNCaP IC50 (nM), cytotoxicity of the FN3 domain-vcMMAF conjugate (CellTiter-Glo). P258AR6P1070_A05 (designed binder, not shown: C-terminal poly-histidine tag) LPAPKNLVVSRVTEDSARLSWTIDEQRDWFDSFLIQYQESEKVGEAIVLTVPGSERSYDLTGLKPGTEYTVSIYGVYHVYRSNPLSAIFTT
Data returned: 4.6 nM
